Data origin: patent US20260373266A1

Attribute: Kd
# Assayed Target: DCAF1 WD40 domain (residues 1077-1390) (Homo sapiens)
# Construct: DCAF1 WD40 domain (residues 1077-1390)
# Sequence (Q9Y4B6 1077-1390): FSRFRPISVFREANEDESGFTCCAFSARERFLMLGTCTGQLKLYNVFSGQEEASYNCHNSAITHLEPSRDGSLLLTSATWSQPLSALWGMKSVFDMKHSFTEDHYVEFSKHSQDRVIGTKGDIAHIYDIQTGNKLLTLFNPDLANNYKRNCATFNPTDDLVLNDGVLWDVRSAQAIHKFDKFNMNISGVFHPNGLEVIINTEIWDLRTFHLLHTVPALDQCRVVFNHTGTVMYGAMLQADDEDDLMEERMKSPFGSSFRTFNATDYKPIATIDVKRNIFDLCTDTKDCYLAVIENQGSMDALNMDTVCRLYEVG
# Method Notes: DCAF1 binding assay by SPR (Biacore 8K+), DCAF1-3 KD
# Condition Parameters: 25 °C, read-out: DCAF1-3 SPR (KD)
Assay Readout: Kd

Mol | Assayed Target | Result
Cc1c(F)ccc(F)c1-c1[nH]ncc1C(=O)N[C@@H](CC(=O)N1CC(N(C)C)C1)c1cccc(Cl)c1 | DCAF1 WD40 domain (residues 1077-1390) (Homo sapiens) | < 10 µM
NCCOCCOCCOCCOCCC1CCN(c2ccnc(N3CC[C@@H]4[C@H]3CCCN4c3cccc(F)c3)c2)CC1 | DCAF1 WD40 domain (residues 1077-1390) (Homo sapiens) | > 200 µM
Fc1ccc(N2CCC[C@@H](Nc3cc(N4CCOCC4)ncn3)C2)cc1 | DCAF1 WD40 domain (residues 1077-1390) (Homo sapiens) | 100 to 200 µM
Cc1sc2c(c1C)C(c1ccc(Cl)cc1)=N[C@@H](CC(=O)NCCOCCOCCOCCOCC(=O)c1[nH]cc(C(=O)N[C@@H](CC(N)=O)c3cccc(Cl)c3)c1-c1ccccc1F)c1nnc(C)n1-2 | DCAF1 WD40 domain (residues 1077-1390) (Homo sapiens) | < 10 µM
c1cc2ccc(N3CCC[C@@H](Nc4cncc(N5CCOCC5)c4)C3)cc2cn1 | DCAF1 WD40 domain (residues 1077-1390) (Homo sapiens) | < 10 µM
c1cnc2c(N3CCC[C@@H](Nc4cc(N5CCOCC5)ncn4)C3)cccc2c1 | DCAF1 WD40 domain (residues 1077-1390) (Homo sapiens) | > 200 µM
CCOC(=O)Cc1ccncc1N1CCC[C@@H](Nc2cc(N3CCOCC3)ccn2)C1 | DCAF1 WD40 domain (residues 1077-1390) (Homo sapiens) | 10 to 100 µM
O=C(O)C1(c2cccc(N3CCC[C@@H](Nc4cc(N5CCOCC5)ccn4)C3)c2)CCCC1 | DCAF1 WD40 domain (residues 1077-1390) (Homo sapiens) | 10 to 100 µM
COCCn1cc(C(=O)N[C@@H](CC(N)=O)c2cccc(Cl)c2)c(-c2ccccc2F)n1 | DCAF1 WD40 domain (residues 1077-1390) (Homo sapiens) | 10 to 100 µM
Fc1cccc(N2CCC[C@@H]3[C@H]2CCN3c2cc(N3CCCCCC3)ccn2)c1 | DCAF1 WD40 domain (residues 1077-1390) (Homo sapiens) | 10 to 100 µM
c1ccc([C@H]2CCC[C@H](Nc3cc(N4CCCCC4)ccn3)C2)cc1 | DCAF1 WD40 domain (residues 1077-1390) (Homo sapiens) | < 10 µM
c1ccc2nc(N3CCC[C@@H](Nc4cc(N5CCOCC5)ncn4)C3)ccc2c1 | DCAF1 WD40 domain (residues 1077-1390) (Homo sapiens) | > 200 µM
NCc1ccc(N2CCC[C@@H](Nc3cc(N4CCOCC4)ccn3)C2)cc1 | DCAF1 WD40 domain (residues 1077-1390) (Homo sapiens) | < 10 µM
Cc1cc(CCCOCCOCCOCCOCCOCCNC(=O)C[C@@H]2N=C(c3ccc(Cl)cc3)c3c(sc(C)c3C)-n3c(C)nnc32)cc(F)c1-c1c(C(=O)N[C@@H](CC(N)=O)c2cccc(Cl)c2)c[nH]c1C#N | DCAF1 WD40 domain (residues 1077-1390) (Homo sapiens) | < 10 µM
COCCOCC[C@@H]1CCCN(c2ccnc(N3CC[C@@H]4[C@H]3CCCN4c3cccc(F)c3)c2)C1 | DCAF1 WD40 domain (residues 1077-1390) (Homo sapiens) | > 200 µM
Cc1ccc(N2CCOCC2)cc1N[C@@H]1CCCN(c2cccc(F)c2)C1 | DCAF1 WD40 domain (residues 1077-1390) (Homo sapiens) | > 200 µM
CN(c1ccccc1)c1ccnc(N[C@@H]2CCCN(c3cccc(F)c3)C2)c1 | DCAF1 WD40 domain (residues 1077-1390) (Homo sapiens) | 10 to 100 µM
Fc1cccc(N2CCC[C@@H](n3cnc4c(N5CCOCC5)ncnc43)C2)c1 | DCAF1 WD40 domain (residues 1077-1390) (Homo sapiens) | > 200 µM
